# run.description: RPL19A-GFP modulators, yeast TOR pathway, confirmation, cell-based, S. cerevisiae, flow cytometry, cherry picks, mother/daughter gates (AID 2270)
# condition.parameters: S. cerevisiae RPL19A-GFP strain, 3 h, at 10 µM, hits give low values, 100 = same GFP as DMSO wells
observed.property: GFP response vs DMSO (%)
Answers are plain numbers, in %.

Sample records with GFP response vs DMSO:
O=C(Nc1ccccc1C(F)(F)F)c1cc(-c2ccc(O)cc2)on1 : 98.8
COc1ccc(C(=O)NC(=S)NNC(=O)c2cnccn2)cc1 : 99.3
COc1ccccc1OC(C)C(=O)Nc1ccccc1C(=O)NCC1CCCO1 (stereo not given) : 97
CC(=O)Oc1c(C)cc(Cl)cc1C(=O)Nc1ccc([N+](=O)[O-])cc1Cl : 97
CCOC(=O)CS(=O)(=O)c1nc(-c2ccc(F)cc2)cc(C(F)(F)F)n1 : 109

I'm hoping you can list GFP response vs DMSO for every compound here, please.
1. Cc1ccn2c(NC(=O)c3ccco3)c(-c3ccccc3)nc2c1
2. N#C/C(=C\c1c(N2CCCCC2)nc2ccccn2c1=O)C(=O)NCc1ccco1
3. COc1ccc(OCC(O)CNC(=O)/C=C/c2cccc([N+](=O)[O-])c2)cc1 (stereo not given)
4. Cc1ccc(N2C3=C(C(=O)CC(C)(C)C3)C(c3cn(C)nc3C)C3=C2CC(C)(C)CC3=O)cc1
5. O=C(Nc1c2c(nn1-c1ccccc1)CS(=O)C2)c1ccco1 (stereo not given)

Reply |
1: 98.6; 2: 98.7; 3: 100; 4: 105; 5: 96.5

Quick batch: GFP response vs DMSO for everything below.
1. COc1cc(NC(C)=O)ccc1NC(=O)c1cc2ccccc2o1
2. CCC(=O)c1ccc(N2CCN(C(=O)c3ccc(Br)cc3)CC2)c(F)c1
3. Cc1nc2ccc(Br)cn2c1NC(C)(C)C

Reply |
1. 99
2. 97.6
3. 98.4

Batch of 7 compounds: report GFP response vs DMSO for each.
1. COc1ccc(-c2ccc(CCC(=O)O)o2)cc1
2. O=C(Cn1cc(/C=C\[N+](=O)[O-])c2ccccc21)Nc1ccccc1
3. O=C(O)CSC1CC(=O)N(c2cccc(Cl)c2)C1=O (stereo not given)
4. O=C(Nc1nc(-c2ccccc2)cs1)c1ccc(Br)o1
5. O=S(=O)(c1ccc(Oc2ccc(Br)cc2)cc1)N1CCOCC1
6. CCOc1ccc(Nc2ccc(C(=O)O)cc2[N+](=O)[O-])cc1
7. [O-][n+]1cccc2c(Br)cc(Br)c(O)c21

Reply |
[97, 97.4, 96.7, 102, 103, 102, 98.2]

Hello, the source for this data is PubChem BioAssay, in case you need it.
